Data provenance is patent US20170306005A1.

Target: T1, human tenascin-C rCd4-His-FBG (rat; human, UniProt P05540 207-392, limits assumed)
T1 construct: domain: domains 3 and 4; C-terminal FBG fusion; biotinylated in the ELISA and HTRF screens; also called Hu TNC; human TNC rCd4-His-FBG; not shown: 6His tag
T1 sequence (chain (part 1 of 2)): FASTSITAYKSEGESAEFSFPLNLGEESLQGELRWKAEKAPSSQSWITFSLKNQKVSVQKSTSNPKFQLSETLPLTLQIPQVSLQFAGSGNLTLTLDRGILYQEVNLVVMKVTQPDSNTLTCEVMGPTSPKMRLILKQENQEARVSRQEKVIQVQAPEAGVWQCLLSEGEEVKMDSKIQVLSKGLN
T1 sequence (chain (part 2 of 2)): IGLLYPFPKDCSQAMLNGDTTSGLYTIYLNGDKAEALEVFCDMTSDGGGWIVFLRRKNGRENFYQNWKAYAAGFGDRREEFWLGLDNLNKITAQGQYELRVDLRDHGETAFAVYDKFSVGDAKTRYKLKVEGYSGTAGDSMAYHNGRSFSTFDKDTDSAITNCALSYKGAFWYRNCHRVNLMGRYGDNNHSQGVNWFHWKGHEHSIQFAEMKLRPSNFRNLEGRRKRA
Experiment: SPR, captured purified IgG4, 37 C
property: Kd
Your answer should be a number followed by the unit of measure.

Reported Kd for 165_13_B1 human IgG4 (antibody, V domains shown, human IgG4 with hinge S241P) VH: QVQLVESGGGLVQPGRSLRLSCAASGFTFDDYAMHWVRQAPGKGLEWVSGISGSGGSTYYADSVKGRFTISRDNAKNSLYLQMNSLRAEDTALYYCAKVMSSMEDAFDIWGQGTMVTVSS VL: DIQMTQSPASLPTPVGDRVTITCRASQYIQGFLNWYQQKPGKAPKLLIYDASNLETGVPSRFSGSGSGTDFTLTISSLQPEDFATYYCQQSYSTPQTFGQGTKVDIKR : what is it?
0.26 nM
